For each record, write down the corresponding koff.
test target: recombinant human CD200 Fc Chimera (human) (UniProt P41217)
test details: SPR (Biacore 3000), CD200-Fc captured by anti-human Fc on CM5, Fab injected, 1:1 Langmuir
# unit: s⁻¹ | format: bare number

INPUT: Requested field: koff. Item: TPP-101 (Fab, V domains shown) VH: QVQLQQSGSELKKPGASVKISCKASGYSFTDYIILWVRQNPGKGLEWIGHIDPYYGSSNYNLKFKGRVTITADQSTTTAYMELSSLRSEDTAVYYCGRSKRDYFDYWGQGTTLTVSS VL: DIQMTQSPSSLSASIGDRVTITCKASQDINSYLSWFQQKPGKAPKLLIYRANRLVDGVPSRFSGSGSGTDYTLTISSLQPEDFAVYYCLQYDEFPYTFGGGTKLEIK
OUTPUT: 0.0148

INPUT: Requested field: koff. Item: TPP-107 (Fab, V domains shown) VH: QVQLVQSGAEVKKPGSSVKVSCKASGYSFTDYIILWVRQAPGQGLEWMGHIDPYYGSSNYNLKFKGRVTITADESTSTAYMELSSLRSEDTAVYYCARSKRDYFDYWGQGTLVTVSS VL: DIQMTQSPSSLSASVGDRVTITCKASQDINSYLSWFQQKPGKAPKSLIYRANRLVDGVPSRFSGSGSGTDFTLTISSLQPEDFATYYCLQYDEFPYTFGQGTKLEIK
OUTPUT: 0.0041

INPUT: Requested field: koff. Item: TPP-100 (Fab, V domains shown) VH: EVQLQQSGPELVKPGASLKMSCKASGYSFTDYIILWVKQNHGKSLEWIGHIDPYYGSSNYNLKFKGKATLTVDKSSSTAYMQLNSLTSEDSAVYYCGRSKRDYFDYWGQGTTLTVSS VL: DIQMTQSPSSMYASLGERVTITCKASQDINSYLSWFQQKPGKSPKTLIYRANRLVDGVPSRFSGSGSGQDYSLTISSLEYEDMGIYYCLQYDEFPYTFGGGTKLEIK
OUTPUT: 0.000739
